Exercise: for every item that follows, state its recorded pKd.
- TARGET_UNDER_TEST: T1, human immunoglobulin E (hIgE) (human, UniProt P01854-1 1-428)
- T1 construct: also called human IgE; Native IgE (Abcam)
- EXPERIMENT_NOTES: SPR (Biacore), pH 6.0
One number for each entry, as −log10 of the molar value.

// worked examples, pKd included
>  <BINDER>
OMA VH15 - VL3 (antibody, V domains shown) VH: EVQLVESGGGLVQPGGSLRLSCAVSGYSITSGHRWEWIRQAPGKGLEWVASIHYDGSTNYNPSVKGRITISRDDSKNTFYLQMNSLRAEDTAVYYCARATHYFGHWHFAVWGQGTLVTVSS VL: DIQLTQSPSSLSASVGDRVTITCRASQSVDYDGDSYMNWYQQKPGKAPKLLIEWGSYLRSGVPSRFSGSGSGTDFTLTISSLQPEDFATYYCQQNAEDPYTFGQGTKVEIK

>  <MEASURED_NUMBER>
8.99

$$$$
>  <BINDER>
Oma VH15W100b - VL3D28H (antibody, V domains shown, also called Oma VH15W100b VL3D25H) VH: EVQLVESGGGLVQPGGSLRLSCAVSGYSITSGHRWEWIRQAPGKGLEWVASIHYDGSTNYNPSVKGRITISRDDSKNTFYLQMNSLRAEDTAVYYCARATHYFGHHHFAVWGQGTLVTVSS VL: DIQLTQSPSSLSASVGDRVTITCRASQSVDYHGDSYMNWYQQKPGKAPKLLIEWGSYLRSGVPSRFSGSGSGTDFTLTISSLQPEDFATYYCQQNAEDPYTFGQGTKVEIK

>  <MEASURED_NUMBER>
7.19

$$$$

Hi! Can you tell me pKd for each of these binders?
1. OmaVH15G55HW100b - VL3D28H (antibody, V domains shown, also called OmaVH15G55HW100b VL3D25H) VH: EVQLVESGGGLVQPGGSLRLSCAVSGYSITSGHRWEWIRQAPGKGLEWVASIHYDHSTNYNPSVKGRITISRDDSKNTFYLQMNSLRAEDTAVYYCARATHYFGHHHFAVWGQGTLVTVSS VL: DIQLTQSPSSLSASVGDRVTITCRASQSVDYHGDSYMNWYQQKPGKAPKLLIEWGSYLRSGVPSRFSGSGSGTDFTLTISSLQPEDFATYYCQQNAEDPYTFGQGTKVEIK
2. OmaVH15G55HW100b - VL3S31H (antibody, V domains shown) VH: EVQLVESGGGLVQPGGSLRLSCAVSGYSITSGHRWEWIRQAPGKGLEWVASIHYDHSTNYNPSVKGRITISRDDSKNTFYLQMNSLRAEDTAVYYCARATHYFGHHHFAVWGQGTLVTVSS VL: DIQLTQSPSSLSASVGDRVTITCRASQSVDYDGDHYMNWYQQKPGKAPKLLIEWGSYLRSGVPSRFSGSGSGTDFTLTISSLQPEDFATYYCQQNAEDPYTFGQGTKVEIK
3. Oma VH15W100b - VL3D28HS31H (antibody, V domains shown) VH: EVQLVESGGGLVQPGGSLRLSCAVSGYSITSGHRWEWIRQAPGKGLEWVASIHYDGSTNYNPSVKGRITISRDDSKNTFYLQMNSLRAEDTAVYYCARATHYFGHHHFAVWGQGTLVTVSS VL: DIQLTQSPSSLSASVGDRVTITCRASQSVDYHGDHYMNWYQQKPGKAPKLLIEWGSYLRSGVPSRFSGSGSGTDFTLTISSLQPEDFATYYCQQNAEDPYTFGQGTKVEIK
4. Oma VH15W100b - VL3S31H (antibody, V domains shown) VH: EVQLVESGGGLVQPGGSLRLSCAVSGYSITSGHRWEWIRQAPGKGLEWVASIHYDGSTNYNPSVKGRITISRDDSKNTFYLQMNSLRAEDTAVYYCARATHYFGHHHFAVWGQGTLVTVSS VL: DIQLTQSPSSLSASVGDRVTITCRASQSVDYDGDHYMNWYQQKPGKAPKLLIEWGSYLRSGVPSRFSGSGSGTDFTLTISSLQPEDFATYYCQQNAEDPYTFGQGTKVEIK
5. OMA VH15 - VL3D28H (antibody, V domains shown, also called OMA VH15 VL3D25H) VH: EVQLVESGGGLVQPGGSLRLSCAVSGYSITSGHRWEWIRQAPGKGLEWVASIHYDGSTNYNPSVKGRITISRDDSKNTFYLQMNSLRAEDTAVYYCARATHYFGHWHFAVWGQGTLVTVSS VL: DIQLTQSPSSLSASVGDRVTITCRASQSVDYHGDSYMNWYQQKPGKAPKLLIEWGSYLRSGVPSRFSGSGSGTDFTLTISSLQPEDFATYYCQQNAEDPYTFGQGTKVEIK

1: 6.86; 2: 6.51; 3: 6.69; 4: 6.72; 5: 8.58
